Target: Glucocorticoid receptor (Homo sapiens, UniProt P04150)
Sequence (P04150 whole entry): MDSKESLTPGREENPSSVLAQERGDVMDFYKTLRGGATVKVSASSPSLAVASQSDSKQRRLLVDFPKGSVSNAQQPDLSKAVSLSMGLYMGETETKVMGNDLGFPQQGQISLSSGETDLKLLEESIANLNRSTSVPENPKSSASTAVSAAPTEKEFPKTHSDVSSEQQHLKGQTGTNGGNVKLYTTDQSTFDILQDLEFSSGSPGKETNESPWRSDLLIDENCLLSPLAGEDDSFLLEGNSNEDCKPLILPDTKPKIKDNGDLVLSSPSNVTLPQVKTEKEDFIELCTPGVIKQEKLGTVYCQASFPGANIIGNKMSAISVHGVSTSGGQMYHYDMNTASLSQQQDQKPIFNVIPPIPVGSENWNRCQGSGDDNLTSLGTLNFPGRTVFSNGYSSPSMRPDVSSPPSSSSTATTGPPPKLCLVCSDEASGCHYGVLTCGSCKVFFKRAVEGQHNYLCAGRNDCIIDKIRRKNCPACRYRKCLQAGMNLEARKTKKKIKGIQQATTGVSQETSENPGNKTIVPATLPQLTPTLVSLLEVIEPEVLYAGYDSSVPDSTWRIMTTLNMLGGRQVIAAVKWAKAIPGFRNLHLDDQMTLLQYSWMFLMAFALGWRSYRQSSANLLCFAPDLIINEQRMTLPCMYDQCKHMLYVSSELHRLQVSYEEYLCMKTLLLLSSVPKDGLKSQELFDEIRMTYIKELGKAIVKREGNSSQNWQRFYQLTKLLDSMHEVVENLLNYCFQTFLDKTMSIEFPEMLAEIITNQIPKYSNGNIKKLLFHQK
pIC50: −log10 of the molar value.
Endpoint summary: pIC50, system: Glucocorticoid receptor (Homo sapiens, UniProt P04150), multiple sources combined.
readout_type: pIC50

CC1=CC(C)(C)Nc2ccc3c(c21)/C(=C/c1ccccc1C)Oc1c(F)cccc1-3 : 6.53

I: Cc1noc(=O)c2ccc(NC(=O)C(O)(CC3CCCCC3)CC(C)(C)c3ccccc3)cc12 (centres undefined)
II: CCN(C[C@](O)(CNC(=O)c1cnn(-c2ccc(F)cc2)c1N)C(F)(F)F)C(=O)c1c(Cl)cccc1Cl
Input: // pick larger pIC50 from pair: I vs II Give the label under which the chosen entry appears.
Output: II
(II: 8.50, I: 8.05)
